Origin of the recorded values: the supplement of paper PMC10567573

B1: KLHL12 (parent)
chain: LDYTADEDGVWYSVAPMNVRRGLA

# Variants of: B1
# testSummary: protein stability index of a GFP-peptide fusion (GPS, HEK-293T) (PSI 1-6); higher = more stable;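 note: lentivirally expressed fusions sorted by FACS into six bins by GFP to DsRed ratio, PSI derived from sequencing read proportions per bin multiplied by bin number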
# testConditions: c terminus: a fixed tail appended
Assign protein stability index to each entry below.

protein stability index reading for "Y12M" : 2.36

protein stability index reading for "D6E" : 2.16

protein stability index reading for "L1E" : 3.53

protein stability index reading for "R20Y" : 1.97

protein stability index reading for "V10Y" : 2.44

protein stability index reading for "G22A" : 1.5

protein stability index reading for "A5L" : 1.29

protein stability index reading for "T4D" : 2.41

protein stability index reading for "L23R" : 2.82

protein stability index reading for "S13W" : 1.37

protein stability index reading for "R21M" : 1.32

protein stability index reading for "G9M" : 2.26

protein stability index reading for "G9A" : 2.17

protein stability index reading for "A15Y" : 2.04

protein stability index reading for "M17T" : 2.48

protein stability index reading for "P16Q" : 2.16

protein stability index reading for "S13D" : 3.34

protein stability index reading for "E7D" : 1.46

protein stability index reading for "T4W" : 1.74

protein stability index reading for "L23E" : 2.41

protein stability index reading for "A24I" : 1.88

protein stability index reading for "Y12F" : 2.23

protein stability index reading for "M17K" : 2.71

protein stability index reading for "T4G" : 2.1

protein stability index reading for "Y12W" : 2.3

protein stability index reading for "N18M" : 1.46

protein stability index reading for "S13L" : 1.89

protein stability index reading for "R21S" : 1.72

protein stability index reading for "M17C" : 2.01

protein stability index reading for "L23P" : 2.35

protein stability index reading for "A15Q" : 2.24

protein stability index reading for "A5P" : 2.23

protein stability index reading for "P16I" : 1.79

protein stability index reading for "A24Y" : 2.39

protein stability index reading for "L1S" : 3.24

protein stability index reading for "P16S" : 1.79

protein stability index reading for "E7G" : 1.7

protein stability index reading for "L1F" : 2.16

protein stability index reading for "Y3D" : 3.35

protein stability index reading for "V19N" : 2.72

protein stability index reading for "G9Q" : 2.21

protein stability index reading for "L1Y" : 2.32

protein stability index reading for "P16V" : 1.85

protein stability index reading for "V14R" : 3.33

protein stability index reading for "R21A" : 2.39

protein stability index reading for "D6L" : 2.08
